Biological target: AMP-activated protein kinase, AMPK (Homo sapiens) (UniProt P54646+O43741+P54619+Q9UGJ0+Q9Y478+Q13131+Q9UGI9)
Experiment: AMP-dependent Kinase enzyme assay. An in vitro enzyme assay that detects ADP turnover that is directly proportional to AMPK activity. This uses naive AMPK that is activated during the assay with MK-8722
Assay type: functional
Design: scale not given: direction of the effect not stated beside the values
Settings: 30 µM
Measured property: Percent Effect (%)
One number for each entry, in %.

• CN(C)c1ccc(C(=O)Nc2ccn(Cc3ccccn3)n2)cn1 = 18.9

List the reported Percent Effect of each compound below.
1. CN(C)C(CNC(=O)c1[nH]nc(C2CC2)c1Br)C1CC1 (configuration not stated)
2. Cn1cc(CC(=O)N2CCCC(c3ccn[nH]3)C2)cn1 (configuration not stated)

1. -3.39
2. -1.05

---

Molecular target: AMP-activated protein kinase, AMPK (Homo sapiens) (UniProt P54646+O43741+P54619+Q9UGJ0+Q9Y478+Q13131+Q9UGI9)
Test: AMP-dependent Kinase enzyme assay. An in vitro enzyme assay that detects ADP turnover that is directly proportional to AMPK activity. This uses naive AMPK that is activated during the assay with MK-8722
Assay type: functional
Parameters: scale not given: direction of the effect not stated beside the values
Settings: 30 µM
For each of the compounds below, state its Percent Effect.
Answers are plain numbers, in %.

- CCc1ccc2nc(C)cc(C(=O)NC3CCC(=O)N(C)C3)c2c1 (configuration not stated): -7.18
- CCc1nc(C2CCCN2Cc2ncc(C)c(OC)c2C)no1 (configuration not stated): 0.391
- CC(Cn1ccnc1)NC(=O)NCCN1CCCCCC1=O (configuration not stated): 0.204
- COCCN1C[C@H]2CC[C@@H]1CN(C(=O)CCc1c(C)nn(C)c1C)C2: -4.69
- CCCN1CCC(NCc2cccc(CN3CCOC(C)C3)c2)CC1 (configuration not stated): -4.13
- COCCN1CCN(Cc2cnc(C3(C)CCCCO3)nc2)CC1 (configuration not stated): 11.3
- COc1cccc(O[C@H]2CCN(c3nc(C)cc(C)n3)CC[C@@H]2O)c1: 1.31
- CC(C)c1nccc(CN(C)Cc2cnn(-c3ccccc3)c2)n1: -5.06
- CCN(CC)CCCNC(=O)Nc1c(C)cccc1C(C)C: 4.58
- CCOc1ccccc1CN(C)C(C)c1nc(-c2cccnc2)no1 (configuration not stated): 1.83

Provide Percent Effect values for the following items, in order.
1. c1csc(CN(Cc2ccsc2)CC2CCCO2)n1 (configuration not stated)
2. CN(C(=O)c1ccccn1)c1nnc(C2CCOC2)s1 (configuration not stated)

[5.59, 9.22]

---

Target: AMP-activated protein kinase, AMPK (Homo sapiens) (UniProt P54646+O43741+P54619+Q9UGJ0+Q9Y478+Q13131+Q9UGI9)
Assay: AMP-dependent Kinase enzyme assay. An in vitro enzyme assay that detects ADP turnover that is directly proportional to AMPK activity. This uses naive AMPK that is activated during the assay with MK-8722
Format: functional
Parameters: scale not given: direction of the effect not stated beside the values
Conditions: 30 µM
Categories are defined by ranges of Percent Effect, namely low class = under 3%, middle class = from 3% up to 9%, high class = 9% and over

Field: example entries. Status: answers known.
* Cc1c(C(=O)N2CCC3(CCCNC3=O)C2)sc2nc[nH]c(=O)c12 (stereo unspecified) | high class
* CCOCCC(=O)Nc1cccc(Cl)c1C(N)=O | low class

Form: Item = O=C(CCc1nnc(-c2ccsc2)o1)NCC1CCN(C2CC2)C1 (stereo unspecified) ; Class = ?
middle class

Using the reported Percent Effect, which band applies to CC(C)c1cc(C2CCN(C(=O)Cn3cncn3)CC2)[nH]n1 ?
high class

Place this compound in its band: Cc1noc(CN(C)c2nc(-c3ccco3)nc3c2CCN(C)CC3)n1
middle class

Lab note: sort COc1cc(Cl)cc(CN2CCCC(N3CCOCC3)C2)c1OC (stereo unspecified) into the matching Percent Effect band.
middle class

State the band of Cc1ccc(-c2cc(C(=O)N(C)Cc3noc4c3CCCC4)[nH]n2)o1
middle class

Each compound maps to one class by Percent Effect. Which class for Cn1cc(C(=O)NCCc2ccc(OC3CCCC3)cc2)ccc1=O ?
low class

Sort CCn1cnnc1CNS(=O)(=O)N1CCCC1c1ccc(C)o1 (stereo unspecified) into one of the categories.
low class

// return the class label for CCN(CCCNC(=O)Nc1ccccc1C(C)C)S(C)(=O)=O
high class

---

Target: AMP-activated protein kinase, AMPK (Homo sapiens) (UniProt P54646+O43741+P54619+Q9UGJ0+Q9Y478+Q13131+Q9UGI9)
Assay: AMP-dependent Kinase enzyme assay. An in vitro enzyme assay that detects ADP turnover that is directly proportional to AMPK activity. This uses naive AMPK that is activated during the assay with MK-8722
Type: functional
Set-up: scale not given: direction of the effect not stated beside the values
Conditions: 30 µM
Please respond with reported Percent Effect for every item in the list.
Numbers only, in %.

Below, each entry is followed by its recorded Percent Effect result.
* O=C1CSCN1Cc1nc(-c2ccc(N3CCCCC3)cc2)no1 | 2.39
* Cc1ccc(C(=O)NCc2ccnc(C3CCCOC3)n2)s1 (stereo unspecified) | 7.88
* CC(C)NC(=O)N1CCCCCC1C1CCN(c2ncccn2)CC1 (stereo unspecified) | -6.91

Provide each entry's Percent Effect from the list below.
1. N#CCCN(CCC#N)C(=O)c1cccc(N2CCNC2=O)c1
2. COc1ccc(-c2cnc(CN(CC(N)=O)C3CCCC3)o2)cc1
3. O=C(c1ccc(=O)[nH]c1)N1CCC(Oc2cccc(C(F)(F)F)c2)CC1

[-2.85, -2.59, -3.39]

---

Species on record: Homo sapiens
Experiment: To identify inhibition of the IFN signalling (Jak-Stat) pathway via expression of an eGFP reporter gene under the control of an IFN-stimulated response element (ISRE) containing MxA promoter.
Format: functional
Set-up: scale not given: direction of the effect not stated beside the values
Settings: 30 µM
I'd be grateful if you could share measured Percent Effect for these entries.
Numbers only, in %.

- Cc1cc(C2CCCN(C(=O)c3c(C)nn4cccnc34)C2)n[nH]1 (centres undefined): 9.89
- CCN(C)Cc1cnc(S(=O)(=O)CC)n1CCOC: 0.566
- O=C1N(CC2CC2)CCC12CCN(c1ncccn1)CC2: 12.4
- O=C1CO[C@@H]2CN(Cc3cccs3)C[C@H]2N1CC1CC1: -6.77
- Cc1noc(C)c1CC(=O)OCC(=O)N1CCc2sccc2C1: 12.1
- CCc1nc(CN(C)C2CCN(CCNS(=O)(=O)CC)C2)no1 (centres undefined): 14.6

State the recorded Percent Effect for every item in the following list.
1. Cc1nc(CN2CCO[C@@H]3CN(C(=O)NC(C)C)CC[C@@H]3C2)cs1
2. COC(=O)C1CCN(C(=O)c2ccc(C)c(NS(C)(=O)=O)c2)CC1
3. Cc1ncc(-c2ccnc(N3CCCCC3)n2)c(=O)[nH]1
4. N#Cc1cccc(N2CC3(CCN(C(=O)c4cccnc4)C3)CC2=O)c1 (centres undefined)
5. COCCc1ncc(CN2CCC(Oc3ccccc3C)CC2)cn1
6. CC(C)=CCN1CCC(c2nccn2Cc2cscn2)CC1

-21.3
-0.867
21.2
-1.73
7.38
-16

Provide the reported Percent Effect of each entry below, same order.
1. Cc1n[nH]c(C)c1C1COCCN1C(=O)c1ccccc1 (centres undefined)
2. O=C(CSC1CCc2ccccc2NC1=O)NCCc1ccco1 (centres undefined)
3. Cc1ccccc1-c1cncc(C2CCN(C(C)C)CC2)n1
4. O=C(C1CCCC1)N1CCC2(CC1)COCCN2CC1CC1
5. Nc1nc2nc(C3CCCN(C(=O)c4cscn4)C3)ccc2s1 (centres undefined)

[20.7, 16.5, -7.37, 9.54, 25.7]

Hi team, please reply with Percent Effect for each item in this list.
1. Cc1cncc(C2CCCN(C(=O)c3cccn3C)C2)n1 (centres undefined)
2. CCn1ccnc1CN1CCCN(C(=O)c2cc(Cl)c[nH]2)CC1
3. Cc1csc(N2CCCN(C(=O)c3c(C)oc(C)c3C)CC2)n1
4. Cc1ccc(C(=O)N2CCC3(CC2)CC(N2CCOCC2)C3)cc1
5. Cc1cnn(C2CCCN(C(=O)c3sccc3-n3cnnn3)C2)c1 (centres undefined)
6. COC(=O)CC(c1ccccc1)c1oc(C)cc(=O)c1O (centres undefined)
7. CC(NC(=O)NCc1cccc(Cl)c1)(C(=O)O)c1ccco1 (centres undefined)

-5.79
10.2
8.84
-1.46
33.8
6.47
-2.55

---

Biological target: AMP-activated protein kinase, AMPK (Homo sapiens) (UniProt P54646+O43741+P54619+Q9UGJ0+Q9Y478+Q13131+Q9UGI9)
Experiment: AMP-dependent Kinase enzyme assay. An in vitro enzyme assay that detects ADP turnover that is directly proportional to AMPK activity. This uses naive AMPK that is activated during the assay with MK-8722
Type: functional
Set-up: scale not given: direction of the effect not stated beside the values
Conditions: 30 µM
Measured property: Percent Effect (%)
One number for each entry, in %.

Known results for molecules:
* CCCNc1cc(-c2c[nH]nc2C2CCN(C(=O)C3CCC3)C2)ccn1 (stereo unspecified) | 43.5
* CCC(=O)Nc1cccc(OCC(=O)N2CC=CC2C(C)C)c1 (stereo unspecified) | -4.81
* CCN(CCNS(=O)(=O)N1CCOCC1)C(=O)OC(C)(C)C | 0.848

Batch: Percent Effect for all items listed.
1. Cc1nc(NCc2cccnc2)cc(C2COCCN2)n1 (stereo unspecified)
2. O=C(CN1CCCC(c2ccn[nH]2)C1)N1CCCc2ccccc21 (stereo unspecified)
3. COC[C@]1(O)CCN(c2cc(OC)ncn2)CC1(C)C

[3.04, -2.2, 20.7]
